- test.system: PCAF Brd (Homo sapiens, UniProt Q92831)
- Construct: Human bromodomains were cloned, expressed and purified as previously described; made in house
- assay.comment: Isothermal titration calorimetry (ITC), PCAF Brd
- Format: binding
- protocol.conditions: Supplemental Table 3; compound concentration 30 μM, protein concentration 280-320 μM; read-out: PCAF KD (μM) (ITC)
measure: Kd

Example compounds with recorded Kd:
Note to self: Kd recorded for `Cc1nnc2c3ccccc3c(N[C@H]3CCCN(Cc4ccccc4)C3)nn12` was > 30 µM

Note to self: Kd recorded for Cc1nnc2c3ccccc3c(NC(C)CN(C)C)nn12 (centres unmarked) was 0.298 µM

Note to self: Kd recorded for `Cc1nnc2c3ccccc3c(N3CCN(CCN4CCCCC4)CC3)nn12` was > 30 µM

Note to self: Kd recorded for `Cc1nnc2c3ccccc3c(NCCN(C)C)nn12` was 7.98 µM

Note to self: Kd recorded for Cc1nnc2c3ccccc3c(NCC3CCCCN3C)nn12 (centres unmarked) was 1.13 µM

Further cases:
Note to self: Kd recorded for `Cc1nnc2c3ccccc3c(N[C@@H]3CCC[C@H]3N(C)C)nn12` was 0.321 µM

Note to self: Kd recorded for Cc1nnc2c3ccccc3c(NC(C)C(c3ccccc3)N(C)C)nn12 (centres unmarked) was > 30 µM

Note to self: Kd recorded for Cc1nnc2c3ccccc3c(NC(C)CN3CCC(C)CC3)nn12 (centres unmarked) was > 30 µM

Note to self: Kd recorded for Cc1nnc2c3ccccc3c(NCC3CCCN3C)nn12 (centres unmarked) was 18.2 µM

Note to self: Kd recorded for `CN(C)[C@H]1CCC[C@@H]1Nc1nn2c(C(F)(F)F)nnc2c2ccccc12` was > 30 µM

Note to self: Kd recorded for Cc1nnc2c3ccccc3c(NC(C)c3cnccn3)nn12 (centres unmarked) was > 30 µM

Note to self: Kd recorded for CCC(CNc1nn2c(C(F)(F)F)nnc2c2ccccc12)N(C)C (centres unmarked) was > 30 µM

Note to self: Kd recorded for CCN(CC)CC(C)Nc1nn2c(C(F)(F)F)nnc2c2ccccc12 (centres unmarked) was > 30 µM

---

- assay.comment: Metabolic stability in human liver microsomes
- Format: in vitro ADME
- protocol.conditions: human liver microsomes; n 5; read-out: CLint (μL/min/mg protein) human
Parameter microsomal CLint: see the listing below.
Write it as a number; the unit µL/min/mg goes unstated.

Note to self: microsomal CLint recorded for Cc1nnc2c3ccccc3c(N[C@@H](C)[C@H](c3ccc(F)cc3)N(C)C)nn12 (relative stereo) [Compound 39] was 29

Switching to the query record.
Note to self: microsomal CLint recorded for Cc1nnc2c3ccccc3c(N[C@@H](C)[C@H](c3ccccc3)N(C)C)nn12 (relative stereo) [Compound 45] was 35

---

- test.system: PCAF Brd (Homo sapiens)
- Construct: Human bromodomains were cloned, expressed and purified as previously described; made in house
- assay.comment: Isothermal titration calorimetry (ITC), PCAF Brd
- Type: binding
- protocol.conditions: Supplemental Table 3; compound concentration 30 μM, protein concentration 280-320 μM; read-out: PCAF KD (μM) (ITC)
measure: Kd

Note to self: Kd recorded for CC(=O)O.Cc1nnc2c3ccccc3c(NCCN3CCCC3)nn12 [Compound 59] was 4.3 µM

Note to self: Kd recorded for Cc1nnc2c3ccccc3c(NC(C)c3ccccn3)nn12 (stereo not drawn) [Compound 71] was 2.3 µM

Note to self: Kd recorded for CC(C)CC(CN(C)C)Nc1nn2c(C(F)(F)F)nnc2c2ccccc12 (stereo not drawn) [Compound 86] was > 30 µM

Note to self: Kd recorded for Cc1nnc2c3ccccc3c(N3CCC(N(C)C)C3)nn12 (stereo not drawn) [Compound 68] was > 30 µM

Note to self: Kd recorded for FC(F)(F)c1nnc2c3ccccc3c(NCc3ccccc3)nn12 [Compound 85] was > 30 µM

Further cases:
Note to self: Kd recorded for CN(C)[C@H]1CCCC[C@@H]1Nc1nn2c(C(F)(F)F)nnc2c2ccccc12 [Compound 83] was > 30 µM

Note to self: Kd recorded for Cc1nnc2c3ccccc3c(N[C@@H](C)CN(C)C)nn12 [(S)‐11] was 0.284 µM

Note to self: Kd recorded for CCC(CN(C)C)Nc1nn2c(C(F)(F)F)nnc2c2ccccc12 (stereo not drawn) [Compound 88] was > 30 µM

Note to self: Kd recorded for CN(C)CCNc1nn2c(C(F)(F)F)nnc2c2ccccc12 [Compound 87] was > 30 µM

---

- test.system: GST-PCAFBRD (Homo sapiens, UniProt Q92831)
- Sequence (Q92831 723-827 limits assumed): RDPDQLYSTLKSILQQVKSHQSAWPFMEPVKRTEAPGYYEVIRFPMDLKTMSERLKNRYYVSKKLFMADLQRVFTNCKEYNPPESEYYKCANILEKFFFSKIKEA
measure: Kd (nM)
Write it as a number; the unit nM goes unstated.

Note to self: Kd recorded for Cc1nnc2c3ccccc3c(NCC(NCCCCNC(=O)CCOCCOCCOCCOCCNC(=O)CCCCC3SCC4NC(=O)NC43)c3ccccc3)nn12 (stereo not shown) [compound 46, reference compound] was 400

---

- test.system: PCAF Brd (Homo sapiens, UniProt Q92831)
- Construct: Human bromodomains were cloned, expressed and purified as previously described; made in house
- assay.comment: Differential scanning fluorimetry (DSF), PCAF Brd
- Type: binding
- protocol.conditions: compound concentration 10 μM
measure: ΔT m [°C] PCAF (DSF) (°C)

Example molecules with recorded ΔT m [°C] PCAF (DSF):
Note to self: ΔT m [°C] PCAF (DSF) recorded for `Cc1nnc2c3ccccc3c(NCC(=O)c3ccccc3)nn12` was 1.0

Note to self: ΔT m [°C] PCAF (DSF) recorded for Cc1nnc2c3ccccc3c(NCC3CCCN3C)nn12 (centres unmarked) was 2.8

Note to self: ΔT m [°C] PCAF (DSF) recorded for `Cc1nnc2c3ccccc3c(N3CCN(CCN4CCCCC4)CC3)nn12` was 0.2

P. Cc1nnc2c3ccccc3c(N3CCCC(N(C)C)C3)nn12 (centres unmarked)
Q. Cc1nnc2c3ccccc3c(N[C@@H]3CCC[C@H]3N(C)C)nn12
R. CC(=O)O.Cc1nnc2c3ccccc3c(NCCN3CCCC3)nn12
S. Cc1nnc2c3ccccc3c(N[C@@H](C)[C@H](c3ccc(F)cc3)N(C)C)nn12 (relative stereo)
[ask] # ascending order, key=ΔT m [°C] PCAF (DSF) Answer by listing the labels in the requested order.
[reply] P, Q, R, S

I. CCN1CCCC1CNc1nn2c(C(F)(F)F)nnc2c2ccccc12 (centres unmarked)
II. Cc1nnc2c3ccccc3c(N3CCC(N(C)C)C3)nn12 (centres unmarked)
III. Cc1nnc2c3ccccc3c(Cl)nn12
[ask] # ascending order, key=ΔT m [°C] PCAF (DSF) Answer by listing the labels in the requested order.
[reply] III, I, II

---

- test.system: GCN5L2 (Homo sapiens, UniProt Q92830)
- Construct: made in house
- Sequence (Q92830 728-832 limits assumed): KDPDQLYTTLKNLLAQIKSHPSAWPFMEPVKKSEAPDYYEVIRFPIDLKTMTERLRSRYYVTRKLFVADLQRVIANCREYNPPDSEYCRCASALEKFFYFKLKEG
- assay.comment: Differential scanning fluorimetry (DSF), GCN5 (GCN5L2) Brd
- Assay type: binding
- protocol.conditions: compound 10 μM; read-out: GCN5L2 ΔTm (°C) (DSF)
measure: ΔTm at 10 µM (°C)

Example compounds with recorded ΔTm at 10 µM:
Note to self: ΔTm at 10 µM recorded for CCC(CN(C)C)Nc1nn2c(C)nnc2c2ccccc12 (stereo not shown) [Compound 12] was 1.1

Note to self: ΔTm at 10 µM recorded for Cc1nnc2c3ccccc3c(N[C@H]3CCC[C@@H]3N(C)C)nn12 [Compound 76] was 2.4

Note to self: ΔTm at 10 µM recorded for C[C@@H](CN(C)C)Nc1nn2c(C(F)(F)F)nnc2c2ccccc12 [Compound (S)‐17] was 0.2

Note to self: ΔTm at 10 µM recorded for FC(F)(F)c1nnc2c3ccccc3c(NCc3ccccc3)nn12 [Compound 85] was 0.9

Note to self: ΔTm at 10 µM recorded for CCN(CC)CC(C)Nc1nn2c(C)nnc2c2ccccc12 (stereo not shown) [Compound 14] was 0

I. Cc1nnc2c3ccccc3c(N3CCN(CCN4CCCCC4)CC3)nn12 [Compound 62]
II. Cc1nnc2c3ccccc3c(NCCN3CCOCC3)nn12 [Compound 98]
[ask] Hi, I'm comparing two records. Which one has the lower ΔTm at 10 µM, I or II ? Response format: the label of the selected entry.
[reply] II

---

- test.system: GCN5L2 (Homo sapiens)
- Construct: made in house
- assay.comment: Differential scanning fluorimetry (DSF), GCN5 (GCN5L2) Brd
- Type: binding
- protocol.conditions: compound 10 μM
measure: GCN5L2 ΔTm (°C) (DSF)

Note to self: GCN5L2 ΔTm (°C) (DSF) recorded for CCC(CNc1nn2c(C(F)(F)F)nnc2c2ccccc12)N(C)C (stereo not shown) was 0.2

Note to self: GCN5L2 ΔTm (°C) (DSF) recorded for `Cc1nnc2c3ccccc3c(N[C@H]3C[C@@H]4CC[C@H]3C4)nn12` was 0

a. CC(C)CC(CN(C)C)Nc1nn2c(C(F)(F)F)nnc2c2ccccc12 (stereo not shown)
b. CCC(CN(C)C)Nc1nn2c(C(F)(F)F)nnc2c2ccccc12 (stereo not shown)
[ask] Quick check, higher GCN5L2 ΔTm (°C) (DSF) between a and b ? Response format: the label of the selected entry.
[reply] a
